FYI, the data here is from PubChem BioAssay AID1159580.

For each record, write down the corresponding normalized growth.
Experiment: chemical genetic growth profiling, strain panel (AID 1159580);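 note: tested at 20 µM; growth read once vehicle control cultures reached saturation at 30 °C; 1 = growth at the plate median or of vehicle wells; lower values mean less growth of the strain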
Settings: S. cerevisiae deletion strains, growth OD, locus YLR320W, strain mms22, stronger effect = lower value
About 2,000 (36%) of roughly 5,500 compounds were called active. Roughly 18% stayed inconclusive and do not appear here. The list shows a part of the results.

• CC(=O)c1c(O)cc(O)cc1O = 0.978 (inactive)
• CC(=O)Oc1c(C)c(C)c2c(c1C)CCC(C)(CCCC(C)CCCC(C)CCCC(C)C)O2 (stereo not drawn) = 0.984 (inactive)
• CC(=O)Nc1c(I)cc(I)c(C(=O)O)c1I = 0.99 (inactive)
• CCC1(C2=NCCN2)Cc2ccccc2O1 (stereo not drawn) = 1 (inactive)
• COc1cc(Cc2cnc(N)nc2N)cc(OC)c1OC = 1.02 (inactive)
• COc1ccccc1OCC(O)COC(N)=O (stereo not drawn) = 0.964 (inactive)
• C=C(C)C1Cc2c(ccc3c(=O)c4c(oc23)COc2cc(OC)c(OC)cc2-4)O1 (stereo not drawn) = 1.02 (inactive)
• O=C(O)C1=C(CSc2nnnn2CS(=O)(=O)O)CS[C@@H]2C(NC(=O)[C@H](O)c3ccccc3)C(=O)N12 (stereo partly drawn) = 0.995 (inactive)
• CCCCCC/C=C\CCCCCCCc1cccc(O)c1C(=O)O = 0.951 (inactive)
• C=C[C@H]1CN2CC[C@H]1C[C@H]2[C@H](O)c1ccnc2ccccc12 = 0.999 (inactive)

Could you tell me normalized growth for each of these compounds? They are listed below.
1. CC(=O)NS(=O)(=O)c1ccc(N)cc1
2. NNCc1ccccc1
3. COc1cc(O)c2c(c1)C(=O)c1cc(C)cc(O)c1C2=O
4. Oc1cccc2cccnc12
5. CC(C)[C@@H]1CC[C@@H](C)C[C@H]1OC(=O)c1ccccc1
6. O=C1c2cccc(O)c2C(=O)c2c(O)cccc21

1: 1.01 (inactive); 2: 0.993 (inactive); 3: 0.962 (inactive); 4: 0.0884 (active); 5: 1.01 (inactive); 6: 0.435 (active)

Could you tell me normalized growth for each of these compounds? They are listed below.
1. CC(C)c1cc2c(c(O)c1O)[C@@]1(C(=O)O)CCCC(C)(C)C1CC2 (stereo partly drawn)
2. C[N+]12CCC(CC1)C(OC(=O)C(O)(c1ccccc1)c1ccccc1)C2 (stereo not drawn)
3. CC(=O)OC1CCC23CC1(C)CCC2C(C)(C)CC3OC(C)=O (stereo not drawn)
4. CNC(C)(C)Cc1ccccc1
5. CC(C)[C@@H]1CC[C@@H](C)CC1=O
6. COCC1=C(C(=O)OC(C)OC(=O)OC(C)C)N2C(=O)[C@@H](NC(=O)/C(=N\OC)c3csc(N)n3)[C@H]2SC1 (stereo partly drawn)
7. CC(C)N1C(=O)c2ccccc2NS1(=O)=O
8. COc1ccc(NS(=O)(=O)c2ccc(N)cc2)nn1

["0.809 (active)", "0.952 (inactive)", "0.959 (inactive)", "1.04 (inactive)", "1.01 (inactive)", "0.983 (inactive)", "1.01 (inactive)", "0.961 (inactive)"]

Could you tell me normalized growth for each of these compounds? They are listed below.
1. CC(=CC1CCC(C)C2CCC(C)=C12)C(=O)O (stereo not drawn)
2. CC(=CC1CCC(C)C2C1=C(C)CC2O)C(=O)O (stereo not drawn)

["0.779 (active)", "1.02 (inactive)"]

Could you tell me normalized growth for each of these compounds? They are listed below.
1. CC(=O)O[C@@H]1C2CC[C@@H]3C1(C[C@@H](O)[C@@]1(O)[C@@H](C[C@H](O)C1(C)C)[C@]3(C)O)C[C@@]2(C)O (stereo partly drawn)
2. O=c1c(O)cccc2cc(O)c(O)c(O)c12
3. COc1ccc([C@@H](C)C(=O)c2ccc(O)cc2O)cc1

1: 1.01 (inactive); 2: 0.595 (active); 3: 0.895 (inactive)

Could you tell me normalized growth for each of these compounds? They are listed below.
1. CC(=O)OCC1=C(C(=O)O)N2C(=O)[C@@H](NC(=O)CSc3ccncc3)[C@H]2SC1
2. COc1cc([C@@H]2c3cc4c(cc3[C@H](O)[C@H]3COC(=O)[C@H]23)OCO4)cc(OC)c1OC
3. CC(=O)O[C@H]1CC2CCC3C(CC[C@@]4(C)C3C[C@H]([N+]3(C)CCCCC3)[C@@H]4OC(C)=O)[C@@]2(C)C[C@@H]1N1CCCCC1 (stereo partly drawn)
4. O=c1c(O)c(-c2ccccc2)oc2cccc(O)c12

1: 1 (inactive); 2: 1.05 (inactive); 3: 1.02 (inactive); 4: 0.661 (active)

Could you tell me normalized growth for each of these compounds? They are listed below.
1. O=c1c(O)c(-c2ccccc2)oc2ccc3occc3c12
2. CC(C)C1CCC(C(=O)N[C@@H](Cc2ccccc2)C(=O)O)CC1 (stereo partly drawn)
3. O=C(CCc1ccc(O)cc1)c1c(O)cc(O)cc1O
4. O=C(O)c1cccnc1C(=O)O
5. NC(Cc1ccc(Cl)cc1)C(=O)O (stereo not drawn)
6. COc1cc(O)ccc1C(C)=O
7. CC(=O)c1ccc[nH]1
8. O=C(Nc1ccc([N+](=O)[O-])cc1Cl)c1cc(Cl)ccc1O

["0.76 (active)", "0.979 (inactive)", "1.02 (inactive)", "1.04 (inactive)", "0.996 (inactive)", "1.03 (inactive)", "1 (inactive)", "0.833 (active)"]

Could you tell me normalized growth for each of these compounds? They are listed below.
1. CC(C)CCCC(C)N (stereo not drawn)
2. O=C1C=CC(=O)c2ccccc21
3. COC(=O)CC1C(C)(C(=O)c2ccoc2)CC2OCC34C(CC(=O)OC)C5(C)CC36OC3(C)OC1(C(OC(C)=O)C6(OC(C)=O)C5OC(=O)C(C)C)C24O3 (stereo not drawn)
4. ClC1C(Cl)C(Cl)C(Cl)C(Cl)C1Cl (stereo not drawn)
5. CC12CCC(O)CC1CCc1ccccc12 (stereo not drawn)
6. O=C1c2ccccc2C(=O)c2ccccc21
7. CN1CCC[C@H]1c1cccnc1

1. 0.977 (inactive)
2. 0.0864 (active)
3. 0.993 (inactive)
4. 0.622 (active)
5. 0.906 (inactive)
6. 0.903 (inactive)
7. 1.03 (inactive)
